Ref: ChEMBL document CHEMBL3868630

Assay: Cytotoxicity against human NCI-H322M cells assessed as cell growth at 10 uM after 48 hrs by SRB assay relative to control
Assay type: functional
Conditions: read-out: Activity
Recorded growth at 10 µM values for a group of compounds are listed next.
Param answer (str): number followed by unit.

# Smiles Repr, growth at 10 µM
records = [
    ("S=c1n(Cc2ccc3ccccc3c2)c2ccccc2n1Cc1ccc2ccccc2c1", "92.6%"),
    ("Cc1n(Cc2ccc3ccccc3n2)c2ccccc2[n+]1Cc1ccc2ccccc2n1.[Cl-]", "94.9%"),
    ("COCCOCCOCc1n(Cc2ccc3ccccc3c2)c2ccccc2[n+]1Cc1ccc2ccccc2c1.[Br-]", "40.5%"),
    ("CCCCCCCc1n(Cc2ccc3ccccc3c2)c2ccccc2[n+]1Cc1ccc2ccccc2c1.[Br-]", "-86%"),
    ("CCCc1n(Cc2ccc3ccccc3c2)c2ccccc2[n+]1Cc1ccc2ccccc2c1.[Br-]", "4.72%"),
    ("OCCCc1n(Cc2ccc3ccccc3c2)c2ccccc2[n+]1Cc1ccc2ccccc2c1.[Br-]", "49.9%"),
]

# compound "COCCOCCOCc1n(Cc2ccc3ccccc3n2)c2ccccc2[n+]1Cc1ccc2ccccc2c1.[Br-]" ; its growth at 10 µM = 26.8%

# compound "COCCOCCOCc1n(Cc2ccc3ccccc3n2)c2ccccc2[n+]1Cc1ccc2ccccc2n1.[Cl-]" ; its growth at 10 µM = 47.4%

# compound "O=c1n(Cc2ccc3ccccc3c2)c2ccccc2n1Cc1ccc2ccccc2c1" ; its growth at 10 µM = 81.6%

# compound "[Cl-].c1ccc2nc(Cn3c[n+](Cc4ccc5ccccc5n4)c4ccccc43)ccc2c1" ; its growth at 10 µM = 78.1%

# compound "Cc1n(Cc2ccc3ccccc3c2)c2ccccc2[n+]1Cc1ccc2ccccc2c1.[Br-]" ; its growth at 10 µM = 9.37%

---

Assay: Cytotoxicity against human NCI-H23 cells assessed as cell growth at 10 uM after 48 hrs by SRB assay relative to control
Type: functional
Conditions: NCI-H23, 48 h, read-out: Activity
Readout: growth at 10 µM (%)
Give your result in % as a bare value.

# compound "COC(=O)c1cc2c(cc1C(=O)OC)[n+](Cc1ccc3ccccc3c1)cn2Cc1ccc2ccccc2c1.[Br-]" ; its growth at 10 µM = 93.2

# compound "CCCc1n(Cc2ccc3ccccc3c2)c2ccccc2[n+]1Cc1ccc2ccccc2c1.[Br-]" ; its growth at 10 µM = -12.9

# compound "CCc1n(Cc2ccc3ccccc3c2)c2ccccc2[n+]1Cc1ccc2ccccc2c1.[Br-]" ; its growth at 10 µM = 28.8

# compound "COCCOCCOCc1n(Cc2ccc3ccccc3c2)c2ccccc2[n+]1Cc1ccc2ccccc2c1.[Br-]" ; its growth at 10 µM = 5.56

# compound "Cc1n(Cc2ccc3ccccc3c2)c2ccccc2[n+]1Cc1ccc2ccccc2c1.[Br-]" ; its growth at 10 µM = -29.5

---

Assay: Growth inhibition of human NCI-H322M cells after 48 hrs by SRB assay
Type: functional
Recorded GI50 values for a group of molecules are listed next.

// worked examples, GI50 included
# Smiles Repr, Result
records = [
    ("OCCCc1n(Cc2ccc3ccccc3c2)c2ccccc2[n+]1Cc1ccc2ccccc2c1.[Br-]", "2.15 µM"),
    ("CCCc1n(Cc2ccc3ccccc3c2)c2ccccc2[n+]1Cc1ccc2ccccc2c1.[Br-]", "1.04 µM"),
    ("COCCOCCOCc1n(Cc2ccc3ccccc3n2)c2ccccc2[n+]1Cc1ccc2ccccc2c1.[Br-]", "1.08 µM"),
]

Continue with the next molecule.
# molecule "Cc1cc2c(cc1C)[n+](Cc1ccc3ccccc3c1)cn2Cc1ccc2ccccc2c1.[Br-]" ; its GI50 = 1.14 µM
